tested on: DU-145; assay: NCI tumour cell line growth inhibition, 48 h
Activity calls are given as the source filed them. Rule as the data show it: active = GI50 up to about 1.1 µM and inactive = higher.
The reply should be one of these categories: active, inactive

Short answer needed: outcome of this test for CC(=O)N[C@H]1CCCC[C@@H]1OC(C)=O ?
inactive

Short answer needed: outcome of this test for CC(C)C(Br)CC/C(CBr)=C(\Cl)CCl (stereo not given) ?
inactive

Short answer needed: outcome of this test for CO/N=C(/C)c1cccc(Nc2nc3ccccc3c3[nH]c4ccccc4c23)c1 ?
inactive

Short answer needed: outcome of this test for C=CCOC(=O)Cn1cnc2c(N)ncnc21 ?
inactive

Short answer needed: outcome of this test for CC(C)=CCC/C(C)=C/CC/C(C)=C/CC/C(C=O)=C/CC/C(C)=C\CC/C(C)=C/CC/C(C)=C/CC/C(C)=C/CC1=CC(=O)C=CC1=O ?
inactive

Short answer needed: outcome of this test for NCCCCNOCCCN ?
inactive

Short answer needed: outcome of this test for CCCCCC(=O)Nc1[nH]cnc1C(N)=O ?
inactive

Short answer needed: outcome of this test for COc1cc(C2CC(C)(O)Oc3cc4c(cc32)OCO4)cc(OC)c1OC (stereo not given) ?
active

Short answer needed: outcome of this test for CN(C)CCCN1C(=S)N(CCCN(C)C)c2c3cc(O)ccc3nc3c([N+](=O)[O-])ccc1c23 ?
inactive

Short answer needed: outcome of this test for CCOC(=O)c1ccc(Nc2nc3ccc(C(F)(F)F)cc3nc2C(=O)OCC)cc1 ?
inactive

====

Exercise: state measured GI50 for each of the compounds provided.
tested on: HCT-15; assay: NCI tumour cell line growth inhibition, 48 h

Value of GI50 reported for the compound Cc1nc2ccc(F)cc2c2c1CCS2 is > 100 µM

Value of GI50 reported for the compound O=C(O)c1ccccc1/N=N/c1c(O)c(S(=O)(=O)O)cc2cc(S(=O)(=O)O)ccc12 is > 100 µM

Value of GI50 reported for the compound COc1cc(/C=C/c2cccnc2)cc(OC)c1OC is > 100 µM

Value of GI50 reported for the compound CC(=O)N[C@H]1CCCC[C@@H]1OC(C)=O is > 100 µM

Value of GI50 reported for the compound COC(=O)CC1NC(=O)C1C1(C)OCCO1 (configuration not stated) is > 100 µM

Value of GI50 reported for the compound CC(C)c1cccc(C(C)C)c1NC(=O)C(=O)C(C(=O)c1ccc2ccccc2c1)C1OC(=O)c2ccccc21 (configuration not stated) is > 100 µM

Value of GI50 reported for the compound O=C(CC1C=CCS1(=O)=O)NCc1ccccc1 (configuration not stated) is > 100 µM

Value of GI50 reported for the compound COc1ccccc1NC(=O)C(=O)C(C#N)CC(C)(C)C=O (configuration not stated) is > 100 µM

Value of GI50 reported for the compound Cc1ccc(-c2cc(-c3ccccc3)c(C#N)c(=O)[nH]2)cc1 is > 100 µM

Value of GI50 reported for the compound CC1(C)CC(=O)C(CC2C(=O)c3ccccc3C2=O)C(=O)C1C(=O)C(=O)Nc1cccc2ccc(O)cc12 (configuration not stated) is 59.3 µM

Value of GI50 reported for the compound O=C1/C(=C/c2ccc(O)cc2)CCC1CNc1ccc(Cl)cc1 (configuration not stated) is 1.3 µM

Value of GI50 reported for the compound O=C1C(=O)N(C2CCCCC2)C(=S)N1C1CCCCC1 is > 100 µM

Value of GI50 reported for the compound CCCCCCCCNC(=S)N/C=C1\C(=O)Oc2ccccc2C1=O is 12.2 µM

Value of GI50 reported for the compound O=C(Oc1cccnc1)c1cc2cc(CCl)ccc2oc1=O is 23.8 µM

Value of GI50 reported for the compound O=c1c2cc([N+](=O)[O-])cnc2sn1-c1ccc([N+](=O)[O-])cc1 is 28.5 µM

Value of GI50 reported for the compound C=C1CC[C@@H]2C(C)(C)C(O)CCC2(C)C1COc1ccc2ccc(=O)oc2c1 (some centres not stated) is 14.1 µM

Value of GI50 reported for the compound O=[N+]([O-])c1ccc2occ3c2c1CCC3 is > 100 µM
